# method: Human HepG2 cell viability assay in 384 well format
# Format: toxicity, cell-based
# Parameters: dose 125 nL, time 70.5 hour; concentration not given beside the values
# assay-setup: HepG2 cells, read-out: Inhibition
cytotoxicity at 70.5 h reference
Supply the numeric figure in %, leaving out any unit text.

Sample answers from the record:
Cc1ccc(Cn2cc(Br)c(NS(C)(=O)=O)n2)cc1 ... -5.3
Cc1ccc(C(=O)N2CC3(CCCCC3)c3cc(C(=O)O)ccc32)cn1 ... 0.0823
CC(=O)N1CCCC2(CCN(C(=O)c3ccc(Cl)c(C(F)(F)F)c3)C2)C1 (configuration not stated) ... -10.6
Cc1ccc(N2C[C@H](C(=O)NCC3CC3)[C@@H]3CCO[C@@H]3C2)nn1 ... -9.32
Cc1cc(=O)n2ncnc2n1CC(O)c1ccccc1 (configuration not stated) ... -17.2

Find the measured cytotoxicity at 70.5 h of `CN1CCN([C@H]2COC[C@@H]3CN(Cc4cccnc4)C[C@@H]32)CC1` and report it.
-8.25

Find the measured cytotoxicity at 70.5 h of O=C(Cc1cccc(O)c1)N1CCCC(OCc2cccnc2)C1 (configuration not stated) and report it.
-7.55

Find the measured cytotoxicity at 70.5 h of CCOC(=O)N1CCC(NCC2CCN(c3cnn(C)c(=O)c3)C2)CC1 (configuration not stated) and report it.
-6.78

Find the measured cytotoxicity at 70.5 h of `Cn1cccc1C(=O)N1CC[C@H]2[C@H](CO[C@H]2CNS(C)(=O)=O)C1` and report it.
-4.35

Find the measured cytotoxicity at 70.5 h of CCC1c2ccsc2CCN1C(=O)NCc1cc(C)on1 (configuration not stated) and report it.
-4.73

Find the measured cytotoxicity at 70.5 h of Cc1cnc(N2C(=O)CSC2c2ccc(F)cc2)s1 (configuration not stated) and report it.
-5.25

Find the measured cytotoxicity at 70.5 h of O=C(N[C@]12CC1CN(C(=O)c1ccco1)C2)c1ccco1 (some centres not stated) and report it.
-2.69

Find the measured cytotoxicity at 70.5 h of `CNC(=O)[C@H]1C[C@@H]2CN(c3cc(OC)ncn3)C[C@@H]2N1C(C)C` and report it.
15.2

Find the measured cytotoxicity at 70.5 h of CC(Cc1cccnc1)Nc1ncnc2cccc(F)c12 (configuration not stated) and report it.
1.44

Find the measured cytotoxicity at 70.5 h of `CNC(=O)CN1CCCC12CCN(C(=O)c1ccoc1)CC2` and report it.
-11.1

Find the measured cytotoxicity at 70.5 h of Cc1nccc(CC2COCCN(c3cnccn3)C2)n1 (configuration not stated) and report it.
22.7

Find the measured cytotoxicity at 70.5 h of Cc1cccc(-n2ncc(C(=O)NCC3CCS(=O)(=O)C3)c2C)c1 (configuration not stated) and report it.
0.102

----------
cytotoxicity at 70.5 h reference
# method: Human HepG2 cell viability assay in 384 well format
# Format: toxicity, cell-based
# Set-up: dose 125 nL, time 70.5 hour; concentration not given beside the values
# assay-setup: HepG2 cells, read-out: Inhibition
Supply the numeric figure in %, leaving out any unit text.

CC(=O)N1CCN([C@@H]2CC[C@@H](NC(=O)c3ccc(C)nc3)[C@H]2O)CC1 ... -5.95
CC(=O)N1CCCC2(C1)CN(C(=O)c1ccncc1)CCO2 (configuration not stated) ... -15.7
CN1CCN(CC2CC2)C(=O)C12CCN(C(=O)c1cnccn1)CC2 ... -3.74
COCC(=O)NC[C@H]1OC[C@@H](NC2CCC(F)(F)CC2)[C@@H]1O ... -8.37

Find the measured cytotoxicity at 70.5 h of `Cc1nn(C(C)C)c2cnn(CC(=O)N3CCN(C)CC3)c12` and report it.
-8.52

Find the measured cytotoxicity at 70.5 h of O=C(Cc1ccc(F)cc1)N1CCCCC1c1ccn2ccnc2n1 (configuration not stated) and report it.
-12

Find the measured cytotoxicity at 70.5 h of `N#Cc1ccccc1CN1C[C@@H]2CC[C@H](C1)N(CC1CC1)C2=O` and report it.
-7.57

Find the measured cytotoxicity at 70.5 h of `O=C(NCc1ccc(N2CC=CC2)cc1)Nc1nnc(C2CC2)s1` and report it.
22.1

Find the measured cytotoxicity at 70.5 h of Cc1nc(C)n(C2CCCN(C(=O)c3cncnc3C)C2)n1 (configuration not stated) and report it.
2.45

----------
# method: Human HepG2 cell viability assay in 384 well format
# Type: toxicity, cell-based
# Set-up: dose 125 nL, time 70.5 hour; concentration not given beside the values
# assay-setup: HepG2 cells, read-out: Inhibition
cytotoxicity at 70.5 h reference

COc1ccc([C@@H]2CN(C(=O)CCCc3cn[nH]c3)C[C@H]2N(C)C)cc1 ... 9.02%
CO[C@H]1CCN(Cc2ccoc2)C[C@@H]1Cc1ccccc1 ... 20.5%
CCc1nnc2n1CCN(C(=O)CCOc1ccc(C)cc1C)C2 ... -4.53%
CSc1ccc2cc(CN(C)CCCN(C)C)c(=O)[nH]c2c1 ... -11.2%
O=C(Nc1nc2c(s1)CN(C(=O)NCc1cccs1)CC2)C1CC1 ... -9.79%

Find the measured cytotoxicity at 70.5 h of `COc1ccc(C(=O)NCc2cc(N3CCOCC3)ncn2)o1` and report it.
17.5%

Find the measured cytotoxicity at 70.5 h of CCCn1nnnc1CN(CC)CC1COc2ccccc2O1 (configuration not stated) and report it.
2.13%

----------
# method: Human HepG2 cell viability assay in 384 well format
# Format: toxicity, cell-based
# Design: dose 125 nL, time 70.5 hour; concentration not given beside the values
# assay-setup: HepG2 cells, read-out: Inhibition
cytotoxicity at 70.5 h reference
Supply the numeric figure in %, leaving out any unit text.

Sample answers from the record:
CCN(CC)S(=O)(=O)N1C[C@@H](O)[C@H](Oc2cccc(F)c2)C1 ... -6.35
CCC(C)NC(=O)CN1CCC2(CC1)OCCO2 (stereo unspecified) ... 3.04
Cc1cccc(NCCNc2ccc(C#N)cn2)n1 ... -5.87
Cn1ccc2c(NC(=O)Cn3ncc4c(c3=O)CCCCC4)cccc21 ... 3.29
O=C(Cc1cccs1)NCC1(O)CCc2ccccc2C1 (stereo unspecified) ... -7.27

Now consider the entry below.
Find the measured cytotoxicity at 70.5 h of `CC(C)CC(=O)N1CCN(c2cc(N(C)C)cnn2)CC1` and report it.
-3.64

----------
# method: Human HepG2 cell viability assay in 384 well format
# Type: toxicity, cell-based
# Set-up: dose 125 nL, time 70.5 hour; concentration not given beside the values
# assay-setup: HepG2 cells, read-out: Inhibition
observable: cytotoxicity at 70.5 h (%)
Supply the numeric figure in %, leaving out any unit text.

c1cnc(Nc2ccc(C3CCCCN3)cn2)cn1 (stereo not given) ... -5.51
COc1ncc(C(=O)N(Cc2cnn(C)c2)C(C)C)cn1 ... -7.11
O=C(COc1cccnc1)NCc1nncn1C1CCCCC1 ... -5.77
CCC1CN(CC(=O)N2CCN(C(C)=O)CC2)CCN1CCOC (stereo not given) ... -7.53
O=C(NCc1nnc2n1CCC2)c1cn(-c2ccccc2Br)nn1 ... -2.93
Cc1nc(C2CCN(C(=O)c3cnc(N(C)C)nc3)CC2)c2sccn12 ... 1.86
Cc1cccc(CO[C@@H]2CC[C@H]3[C@H]2OCCN3Cc2ccsc2)n1 ... -12.2
Cc1ccc(OC2(C(=O)O)CCN(C(=O)c3cccs3)CC2)cn1 ... 17.4

Find the measured cytotoxicity at 70.5 h of `CCCn1cc(C(=O)NCc2nnc(-c3ccc(C)nc3)o2)c(C)n1` and report it.
-1.21

Find the measured cytotoxicity at 70.5 h of `CCS(=O)(=O)N1C[C@H]2CN(Cc3cccc(C)c3)C(=O)[C@H]2C1` and report it.
-10.5

----------
cytotoxicity at 70.5 h reference
# method: Human HepG2 cell viability assay in 384 well format
# Assay type: toxicity, cell-based
# Design: dose 125 nL, time 70.5 hour; concentration not given beside the values
# assay-setup: HepG2 cells, read-out: Inhibition
Supply the numeric figure in %, leaving out any unit text.

CC(C)N1CCOC(CC(=O)N2CC(c3ccncc3)C2)C1 (stereo not given) ... -2.68
CS(=O)(=O)N1CCC(Oc2ccc(C(=O)NCCC(N)=O)cc2Cl)CC1 ... 6.15
O=C(NCCn1cccc1)C(c1cccnc1)N1CCCC1 (stereo not given) ... -0.962
Cc1cc(C)c(N(CC(O)CNCc2ccco2)S(C)(=O)=O)c(C)c1 (stereo not given) ... -7.18
O=C(NCC1CCC2(CCNCC2)CO1)c1cnccn1 (stereo not given) ... 9.23

Find the measured cytotoxicity at 70.5 h of COc1ccccc1OCCc1cc(C2CCNC2)n[nH]1 (stereo not given) and report it.
-6.36

Find the measured cytotoxicity at 70.5 h of `CC(C)n1cnnc1Cn1c(=O)cnc2ccccc21` and report it.
-4.23

Find the measured cytotoxicity at 70.5 h of CCn1ncc2c1C(COCC1CC1)N(Cc1ccccn1)CC2 (stereo not given) and report it.
-1.07

Find the measured cytotoxicity at 70.5 h of `Cc1nnc(SCCNC(=O)c2cc(S(N)(=O)=O)ccc2F)s1` and report it.
-5.1

Recorded values, source ChEMBL document CHEMBL3507680.
